B1: TPR 5TU (parent)
chain: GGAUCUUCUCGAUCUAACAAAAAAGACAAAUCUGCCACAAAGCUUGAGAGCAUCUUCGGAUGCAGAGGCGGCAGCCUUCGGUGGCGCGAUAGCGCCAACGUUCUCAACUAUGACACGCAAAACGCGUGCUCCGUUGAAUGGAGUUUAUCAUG

Variants of: B1
Test details: polymerase ribozyme fitness, log enrichment relative to wild type (log ratio); higher = more active; in vitro selection for triplet polymerase activity
Fewer inactive variants are shown than the library holds.
Metric name: polymerase ribozyme fitness (log ratio)

> print(dat)
                              mutation.label  measurement
 1                      A12U C79U C93G C132G       ≤ -4.2
 2  A24C A26U U31A G68U C87A A89G A98G C132G       ≤ -4.2
 3                       U15G C32A G88A A97G       ≤ -4.2
 4  A16G C32A C38G U56A A60C C87A C123U A150C       ≤ -4.2
 5                      G68C G81U C96U U109C       ≤ -4.2
 6  A19G C51U A52C A60U G65A G84U C85A C87U A98C A138G       ≤ -4.2
 7           A52C C85A C93U C96G A121C U146C       ≤ -4.2
 8           C14G A20U U55A C85A C105U U134A       ≤ -4.2
 9           A21U A39U U61G G92U C108A G141A       ≤ -4.2
10                 G58A C72U C76G C99G A110C       ≤ -4.2
11      U56G G65C G67C C85A C93G C118U C149A       ≤ -4.2
12           A39U A52G U61A A73U A115U A150C       ≤ -4.2
13  A16U C27A G42A U44G U45A A49C A113G U144A       ≤ -4.2
14                          C87U C108G U145G       ≤ -4.2

Attribution: the RNAGym collection of RNA variant scans (doi:10.1073/pnas.2313332121)
